Target: UniProt P55212
Sequence (whole entry): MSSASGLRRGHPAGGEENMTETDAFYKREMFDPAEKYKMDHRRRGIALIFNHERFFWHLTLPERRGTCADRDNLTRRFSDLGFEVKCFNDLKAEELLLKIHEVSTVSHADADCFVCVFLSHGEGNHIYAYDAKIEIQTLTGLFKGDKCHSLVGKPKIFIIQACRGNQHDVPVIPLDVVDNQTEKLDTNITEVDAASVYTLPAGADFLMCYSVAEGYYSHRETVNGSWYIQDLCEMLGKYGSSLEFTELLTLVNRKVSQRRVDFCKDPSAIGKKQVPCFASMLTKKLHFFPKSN
Experiment: Second-order inhibition rate of caspase-6 was determined by progress curve method
reported-property: k2 (M⁻¹ s⁻¹)

[[record]]
smiles = "CC(C)[C@H](NC(=O)CCc1ccccc1)C(=O)N[C@@H](C)C(=O)NN(CC(=O)O)C(=O)[C@H]1O[C@@H]1C(=O)N[C@@H](C)C(=O)NCc1ccccc1"
endpoint_unit = "M⁻¹ s⁻¹"
reported = 25

[[record]]
smiles = "CC(C)[C@H](NC(=O)CCc1ccccc1)C(=O)N[C@@H](C)C(=O)NN(CC(=O)O)C(=O)[C@H]1O[C@@H]1C(=O)N[C@@H](Cc1ccc(O)cc1)C(N)=O"
endpoint_unit = "M⁻¹ s⁻¹"
reported = 11

[[record]]
smiles = "CC[C@H](C)[C@H](NC(=O)OCc1ccccc1)C(=O)N[C@@H](CCC(=O)O)C(=O)N[C@H](C(=O)NN(CC(=O)O)C(=O)[C@@H]1O[C@H]1C(=O)N[C@@H](C)C(=O)NCc1ccccc1)[C@@H](C)O"
endpoint_unit = "M⁻¹ s⁻¹"
reported = 38200


* * *

biological target: Caspase-3 (Homo sapiens); assay: Second-order inhibition rate of caspase-3 was determined by progress curve method
reported-property: k2 (M⁻¹ s⁻¹)

[[record]]
compound = "CCOC(=O)[C@@H]1O[C@H]1C(=O)N(CC(=O)O)NC(=O)[C@@H](NC(=O)[C@H](CCC(=O)O)NC(=O)[C@@H](NC(=O)OCc1ccccc1)[C@@H](C)CC)[C@@H](C)O"
reported_property = "k2"
endpoint_unit = "M⁻¹ s⁻¹"
reported = 2630

[[record]]
compound = "CC(C)[C@H](NC(=O)CCc1ccccc1)C(=O)N[C@@H](C)C(=O)NN(CC(=O)O)C(=O)[C@H]1O[C@@H]1C(=O)OCCc1ccccc1"
reported_property = "k2"
endpoint_unit = "M⁻¹ s⁻¹"
reported = 2110

[[record]]
compound = "CC(C)[C@H](NC(=O)OCc1ccccc1)C(=O)NN(CC(=O)O)C(=O)[C@H]1O[C@@H]1CCc1ccccc1"
reported_property = "k2"
endpoint_unit = "M⁻¹ s⁻¹"
reported = 310

[[record]]
compound = "CC(C)[C@H](NC(=O)OCc1ccccc1)C(=O)NN(CC(=O)O)C(=O)[C@H]1O[C@@H]1c1ccc(Cl)cc1"
reported_property = "k2"
endpoint_unit = "M⁻¹ s⁻¹"
reported = 145

[[record]]
compound = "CCOC(=O)[C@@H]1O[C@H]1C(=O)N(CC(=O)O)NC(=O)[C@@H](NC(=O)C(CCC(=O)O)NC(=O)[C@H](CC(C)C)NC(=O)OCc1ccccc1)[C@@H](C)O (some centres not stated)"
reported_property = "k2"
endpoint_unit = "M⁻¹ s⁻¹"
reported = 3250

[[record]]
compound = "CCOC(=O)[C@H]1O[C@@H]1C(=O)N(CC(=O)O)NC(=O)[C@H](C)NC(=O)[C@@H](NC(=O)CCc1ccccc1)C(C)C"
reported_property = "k2"
endpoint_unit = "M⁻¹ s⁻¹"
reported = 1040

[[record]]
compound = "CCOC(=O)[C@H]1O[C@@H]1C(=O)N(CC(=O)O)NC(=O)[C@@H](NC(=O)OCc1ccccc1)C(C)C"
reported_property = "k2"
endpoint_unit = "M⁻¹ s⁻¹"
reported = 3650


* * *

target: Pepsin A (Sus scrofa) (UniProt P00791); assay: Tested for inhibition of porcine pepsin by the compound; NI = No Inhibition
Sequence (P00791 60-385 limits assumed): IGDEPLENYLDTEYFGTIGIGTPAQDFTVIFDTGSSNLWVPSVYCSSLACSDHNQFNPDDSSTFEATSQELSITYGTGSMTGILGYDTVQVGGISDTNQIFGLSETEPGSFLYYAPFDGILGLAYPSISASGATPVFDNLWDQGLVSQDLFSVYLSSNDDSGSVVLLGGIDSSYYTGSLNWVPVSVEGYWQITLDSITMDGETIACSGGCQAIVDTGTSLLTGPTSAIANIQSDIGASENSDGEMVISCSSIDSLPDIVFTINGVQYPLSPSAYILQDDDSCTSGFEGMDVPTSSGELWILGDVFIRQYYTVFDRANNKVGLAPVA
The source made the active and inactive calls. The rule behind the calls is not given here.
reported-property: k obs / 1

[[record]]
compound = "CCOC(=O)[C@H]1O[C@@H]1C(=O)N(CC(=O)O)NC(=O)[C@@H](NC(=O)C(CCC(=O)O)NC(=O)[C@H](CC(C)C)NC(=O)OCc1ccccc1)[C@@H](C)O (stereo partly drawn)"
reported_property = "k obs / 1"
reported = "inactive"

[[record]]
compound = "CCOC(=O)[C@H]1O[C@@H]1C(=O)N(CC(=O)O)NC(=O)[C@@H](NC(=O)[C@H](CCC(=O)O)NC(=O)[C@@H](NC(=O)OCc1ccccc1)[C@@H](C)CC)[C@@H](C)O"
reported_property = "k obs / 1"
reported = "inactive"

[[record]]
compound = "CCOC(=O)[C@H]1O[C@@H]1C(=O)N(CC(=O)O)NC(=O)[C@@H](NC(=O)[C@H](CCC(=O)O)NC(=O)OCc1ccccc1)C(C)C"
reported_property = "k obs / 1"
reported = "inactive"


* * *

target: Caspase-6 (Homo sapiens) (UniProt P55212); assay: Second-order inhibition rate of caspase-6 was determined by progress curve method
Item-by-item account of k2
reported-property: k2 (M⁻¹ s⁻¹)

[[record]]
compound = "CC(C)C[C@H](NC(=O)OCc1ccccc1)C(=O)NC(CCC(=O)O)C(=O)N[C@H](C(=O)NN(CC(=O)O)C(=O)[C@H]1O[C@@H]1C(=O)N[C@@H](C)C(=O)NCc1ccccc1)[C@@H](C)O (stereo not given in full)"
reported_property = "k2"
reported = 6660

[[record]]
compound = "CCOC(=O)[C@H]1O[C@@H]1C(=O)N(CC(=O)O)NC(=O)[C@@H](NC(=O)[C@H](CCC(=O)O)NC(=O)[C@@H](NC(=O)OCc1ccccc1)[C@@H](C)CC)[C@@H](C)O"
reported_property = "k2"
reported = 45800

[[record]]
compound = "CC(C)[C@H](NC(=O)C(CCC(=O)O)NC(=O)[C@H](CC(=O)O)NC(=O)OCc1ccccc1)C(=O)NN(CC(=O)O)C(=O)[C@H]1O[C@@H]1C(=O)N[C@@H](Cc1ccccc1)C(N)=O (stereo not given in full)"
reported_property = "k2"
reported = 6140

[[record]]
compound = "CC(C)[C@H](NC(=O)CCc1ccccc1)C(=O)N[C@@H](C)C(=O)NN(CC(=O)O)C(=O)[C@H]1O[C@@H]1C(=O)OCCc1ccccc1"
reported_property = "k2"
reported = 240

[[record]]
compound = "CCOC(=O)[C@@H]1O[C@H]1C(=O)N(CC(=O)O)NC(=O)[C@@H](NC(=O)C(CCC(=O)O)NC(=O)[C@H](CC(=O)O)NC(=O)OCc1ccccc1)C(C)C (stereo not given in full)"
reported_property = "k2"
reported = 475


* * *

tested on: Cathepsin B; test: Tested for inhibition of cathepsin B by the compound; NI = No Inhibition
Activity calls are given as the source filed them. The calls are words filed in the database; no cut-off is given here.
reported-property: k obs / 1

[[record]]
compound = "CCOC(=O)[C@@H]1O[C@H]1C(=O)N(CC(=O)O)NC(=O)[C@@H](NC(=O)C(CCC(=O)O)NC(=O)[C@H](CC(=O)O)NC(=O)OCc1ccccc1)C(C)C (stereo partly drawn)"
experimental_target = "Cathepsin B"
reported_property = "k obs / 1"
reported = "inactive"

[[record]]
compound = "CCOC(=O)[C@@H]1O[C@H]1C(=O)N(CC(=O)O)NC(=O)[C@@H](NC(=O)C(CCC(=O)O)NC(=O)[C@H](CC(C)C)NC(=O)OCc1ccccc1)[C@@H](C)O (stereo partly drawn)"
experimental_target = "Cathepsin B"
reported_property = "k obs / 1"
reported = "inactive"

[[record]]
compound = "CCOC(=O)[C@H]1O[C@@H]1C(=O)N(CC(=O)O)NC(=O)[C@@H](NC(=O)[C@H](CCC(=O)O)NC(=O)[C@H](CC(=O)O)NC(=O)OCc1ccccc1)C(C)C"
experimental_target = "Cathepsin B"
reported_property = "k obs / 1"
reported = "inactive"


* * *

molecular target: UniProtKB P29466; test: Second-order inhibition rate of caspase-1 was determined by progress curve method
Sequence (P29466 120-297 limits assumed): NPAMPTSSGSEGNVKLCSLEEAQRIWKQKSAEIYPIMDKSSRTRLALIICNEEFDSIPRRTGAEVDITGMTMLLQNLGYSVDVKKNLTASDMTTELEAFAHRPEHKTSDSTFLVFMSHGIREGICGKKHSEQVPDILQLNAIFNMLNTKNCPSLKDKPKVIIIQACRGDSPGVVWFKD
Sequence (P29466 317-404 limits assumed): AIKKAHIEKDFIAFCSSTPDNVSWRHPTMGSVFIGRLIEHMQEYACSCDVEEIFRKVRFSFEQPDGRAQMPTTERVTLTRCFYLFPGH
Definition: the class of an entry is the range in low-valued (below 10000 M⁻¹ s⁻¹), mid-valued (10000 M⁻¹ s⁻¹ to below 30000 M⁻¹ s⁻¹), high-valued (30000 M⁻¹ s⁻¹ or more) that contains its k2.

[[record]]
molecule = "CCOC(=O)[C@H]1O[C@@H]1C(=O)N(CC(=O)O)NC(=O)[C@@H](NC(=O)[C@H](CCC(=O)O)NC(=O)OCc1ccccc1)C(C)C"
category_label = "high-valued"

[[record]]
molecule = "CC(C)[C@H](NC(=O)CCc1ccccc1)C(=O)N[C@@H](C)C(=O)NN(CC(=O)O)C(=O)[C@H]1O[C@@H]1C(=O)N[C@@H](C)C(=O)NCc1ccccc1"
category_label = "mid-valued"

[[record]]
molecule = "CC(C)[C@H](NC(=O)[C@H](CCC(=O)O)NC(=O)OCc1ccccc1)C(=O)NN(CC(=O)O)C(=O)[C@@H]1O[C@H]1C(=O)N[C@@H](Cc1ccccc1)C(N)=O"
category_label = "low-valued"

[[record]]
molecule = "CC(C)[C@H](NC(=O)CCc1ccccc1)C(=O)N[C@@H](C)C(=O)NN(CC(=O)O)C(=O)[C@H]1O[C@@H]1C(=O)OCc1ccccc1 (stereo in doubt)"
category_label = "mid-valued"

[[record]]
molecule = "CC(C)[C@H](NC(=O)CCc1ccccc1)C(=O)N[C@@H](C)C(=O)NN(CC(=O)O)C(=O)[C@H]1O[C@@H]1CCc1ccccc1"
category_label = "low-valued"

[[record]]
molecule = "CCOC(=O)[C@H]1O[C@@H]1C(=O)N(CC(=O)O)NC(=O)[C@@H](NC(=O)[C@H](CCC(=O)O)NC(=O)[C@@H](NC(=O)OCc1ccccc1)[C@@H](C)CC)[C@@H](C)O"
category_label = "mid-valued"

[[record]]
molecule = "CC[C@H](C)[C@H](NC(=O)OCc1ccccc1)C(=O)N[C@@H](CCC(=O)O)C(=O)N[C@H](C(=O)NN(CC(=O)O)C(=O)[C@@H]1O[C@H]1C(=O)OCc1ccccc1)[C@@H](C)O"
category_label = "mid-valued"

[[record]]
molecule = "CC(C)[C@H](NC(=O)C(CCC(=O)O)NC(=O)[C@H](CC(=O)O)NC(=O)OCc1ccccc1)C(=O)NN(CC(=O)O)C(=O)[C@H]1O[C@@H]1C(=O)OCc1ccccc1 (stereo partly drawn)"
category_label = "high-valued"

[[record]]
molecule = "CC[C@H](C)[C@H](NC(=O)OCc1ccccc1)C(=O)N[C@@H](CCC(=O)O)C(=O)N[C@H](C(=O)NN(CC(=O)O)C(=O)[C@@H]1O[C@H]1C(=O)NCc1ccccc1)[C@@H](C)O"
category_label = "mid-valued"

[[record]]
molecule = "CC(C)[C@H](NC(=O)CCc1ccccc1)C(=O)N[C@@H](C)C(=O)NN(CC(=O)O)C(=O)[C@H]1O[C@@H]1C(=O)N[C@@H](Cc1ccccc1)C(N)=O"
category_label = "high-valued"

[[record]]
molecule = "CC(C)[C@H](NC(=O)CCc1ccccc1)C(=O)N[C@@H](C)C(=O)NN(CC(=O)O)C(=O)[C@H]1O[C@@H]1C(=O)OCCc1ccccc1"
category_label = "high-valued"

[[record]]
molecule = "CCOC(=O)[C@H]1O[C@@H]1C(=O)N(CC(=O)O)NC(=O)[C@H](C)NC(=O)[C@@H](NC(=O)CCc1ccccc1)C(C)C"
category_label = "high-valued"

[[record]]
molecule = "CC(C)C[C@H](NC(=O)[C@H]1O[C@@H]1C(=O)N(CC(=O)O)NC(=O)[C@H](C)NC(=O)[C@@H](NC(=O)CCc1ccccc1)C(C)C)C(N)=O"
category_label = "mid-valued"

[[record]]
molecule = "CC(C)[C@H](NC(=O)CCc1ccccc1)C(=O)N[C@@H](C)C(=O)NN(CC(=O)O)C(=O)[C@@H]1O[C@H]1C(=O)NCc1ccccc1"
category_label = "low-valued"

[[record]]
molecule = "CC(C)[C@H](NC(=O)C(CCC(=O)O)NC(=O)[C@H](CC(=O)O)NC(=O)OCc1ccccc1)C(=O)NN(CC(=O)O)C(=O)[C@H]1O[C@@H]1C(=O)NCc1ccccc1 (stereo partly drawn)"
category_label = "mid-valued"

[[record]]
molecule = "CC(C)[C@H](NC(=O)C(CCC(=O)O)NC(=O)[C@H](CC(=O)O)NC(=O)OCc1ccccc1)C(=O)NN(CC(=O)O)C(=O)[C@H]1O[C@@H]1C(=O)N[C@@H](Cc1ccccc1)C(N)=O (stereo partly drawn)"
category_label = "low-valued"

[[record]]
molecule = "CC(C)[C@H](NC(=O)CCc1ccccc1)C(=O)N[C@@H](C)C(=O)NN(CC(=O)O)C(=O)[C@H]1O[C@@H]1C(=O)NCCc1ccccc1"
category_label = "mid-valued"

[[record]]
molecule = "CC[C@H](C)[C@H](NC(=O)OCc1ccccc1)C(=O)N[C@@H](CCC(=O)O)C(=O)N[C@H](C(=O)NN(CC(=O)O)C(=O)[C@H]1O[C@@H]1C(=O)OCc1ccccc1)[C@@H](C)O"
category_label = "high-valued"

[[record]]
molecule = "CC(C)[C@H](NC(=O)CCc1ccccc1)C(=O)N[C@@H](C)C(=O)NN(CC(=O)O)C(=O)[C@H]1O[C@@H]1C(=O)NCC(O)c1ccccc1 (stereo partly drawn)"
category_label = "mid-valued"

[[record]]
molecule = "CC(C)[C@H](NC(=O)CCc1ccccc1)C(=O)N[C@@H](C)C(=O)NN(CC(=O)O)C(=O)[C@@H]1O[C@H]1C(=O)N[C@@H](Cc1ccccc1)C(N)=O"
category_label = "low-valued"

[[record]]
molecule = "CCOC(=O)[C@@H]1O[C@H]1C(=O)N(CC(=O)O)NC(=O)[C@@H](NC(=O)C(CCC(=O)O)NC(=O)[C@H](CC(=O)O)NC(=O)OCc1ccccc1)C(C)C (stereo partly drawn)"
category_label = "low-valued"

[[record]]
molecule = "CCOC(=O)[C@H]1O[C@@H]1C(=O)N(CC(=O)O)NC(=O)[C@@H](NC(=O)C(CCC(=O)O)NC(=O)[C@H](CC(C)C)NC(=O)OCc1ccccc1)[C@@H](C)O (stereo partly drawn)"
category_label = "mid-valued"

[[record]]
molecule = "CC(C)[C@H](NC(=O)CCc1ccccc1)C(=O)N[C@@H](C)C(=O)NN(CC(=O)O)C(=O)[C@@H]1O[C@H]1C(=O)OCc1ccccc1"
category_label = "low-valued"

